So I've got a bunch of compounds here, and I need their half-life at 15000 µM values.
test: Stability in water: time evolution in D2O followed by 1H NMR (hydrolysis); type: physicochemical; conditions: 15 mM solution in D2O at 25 °C, read-out: t1/2 (hydrolysis) (converted)
Kindly write the number and append the unit.

input: Tell me the measured half-life at 15000 µM of Cc1cc(C)c(C2=C3C=CC=[N+]3[B-]3(OC(=O)C[C@H](C[N+](C)(C)C)O3)n3cccc32)c(C)c1 (some centres unmarked) [Compound 3] , please.
output: 0.167 h

input: CC1=CC(C)=[N+]2C1=C(c1c(C)cc(C)cc1C)c1c(C)cc(C)n1[B-]21OC(=O)C[C@H](C[N+](C)(C)C)O1 (some centres unmarked) [Compound 4] , same question.
output: 6 h
